# maps each entry to its MIC
tested on: P. aeruginosa NB52019 (wild-type PAO1); assay: MIC, broth microdilution (CLSI); assay type: cell-based; details: Pseudomonas aeruginosa; P. aeruginosa wild-type PAO1; 35° C., 20 hours; read-out: Antibacterial activity (MIC) NB52019

The following molecules have reported results that may help.
molecule: Cc1c(N2CCC(CN)C2)c(F)c(CN)c2ccc(=O)n(C3CC3)c12.O=C(O)C(F)(F)F (stereo not drawn)
study.target: P. aeruginosa NB52019 (wild-type PAO1)
MIC: > 32 µg/mL

molecule: Cc1c(N2CCC(CN)C2)c(F)c(C#N)c2ccc(=O)n(C3CC3)c12.O=C(O)C(F)(F)F (stereo not drawn)
study.target: P. aeruginosa NB52019 (wild-type PAO1)
MIC: > 32 µg/mL

Could you now look at the following molecule, please?
Form field MIC, entry Cc1c(N2CCC(CN)C2)c(F)cc2c(CN(C)C)cc(=O)n(C3CC3)c12.O=C(O)C(F)(F)F (stereo not drawn) : > 32 µg/mL

----------
target: E. coli DNA gyrase (GyrA-B) (Escherichia coli, UniProt P0AES4); test: Supercoiling assay of E. coli gyrase; assay type: biochemical; details: supercoiling activity of E. coli gyrase (GyrA-B); read-out: GyrA-B IC50 (Enzyme)
Sequence (P0AES4 whole entry): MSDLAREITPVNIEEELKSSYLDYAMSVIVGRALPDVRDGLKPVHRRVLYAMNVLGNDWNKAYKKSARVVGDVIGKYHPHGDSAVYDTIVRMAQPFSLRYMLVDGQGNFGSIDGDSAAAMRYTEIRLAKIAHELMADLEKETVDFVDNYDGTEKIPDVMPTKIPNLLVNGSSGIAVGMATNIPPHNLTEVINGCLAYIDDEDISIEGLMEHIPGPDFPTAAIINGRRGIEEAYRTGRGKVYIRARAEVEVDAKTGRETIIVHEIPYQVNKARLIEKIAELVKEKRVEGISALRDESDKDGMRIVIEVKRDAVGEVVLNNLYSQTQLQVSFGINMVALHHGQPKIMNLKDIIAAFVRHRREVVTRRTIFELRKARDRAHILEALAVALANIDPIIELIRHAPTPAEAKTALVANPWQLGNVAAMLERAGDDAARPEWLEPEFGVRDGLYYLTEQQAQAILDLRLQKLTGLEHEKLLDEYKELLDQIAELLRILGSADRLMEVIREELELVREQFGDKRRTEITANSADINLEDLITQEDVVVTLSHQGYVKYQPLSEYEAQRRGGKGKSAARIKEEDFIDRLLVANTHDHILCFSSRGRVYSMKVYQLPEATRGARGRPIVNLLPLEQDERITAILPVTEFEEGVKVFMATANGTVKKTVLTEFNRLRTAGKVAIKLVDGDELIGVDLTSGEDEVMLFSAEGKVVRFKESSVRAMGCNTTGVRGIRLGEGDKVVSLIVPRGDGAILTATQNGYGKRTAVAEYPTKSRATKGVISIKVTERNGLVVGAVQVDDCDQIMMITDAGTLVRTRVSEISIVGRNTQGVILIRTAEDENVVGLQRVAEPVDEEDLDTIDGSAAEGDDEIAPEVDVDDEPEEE
Documented pIC50 across a set of molecules
As a rule, pIC50 stands for the negative log10 of the concentration, concentration in M.

Some solved entries appear below for comparison.
molecule: Cc1c(N2CC[C@@H]([C@H](C)N)C2)c(F)cc2c(C#N)cc(=O)n(C3CC3)c12
study.target: E. coli DNA gyrase (GyrA-B) (Escherichia coli, UniProt P0AES4)
pIC50: 6.89
//
molecule: Cc1c(N2CC[C@@H]([C@H](C)N)C2)c(F)cc2cc(C(=O)O)c(=O)n(C3CC3)c12.Cl [Example 1.1, hydrochloride salt]
study.target: E. coli DNA gyrase (GyrA-B) (Escherichia coli, UniProt P0AES4)
pIC50: 6.17

Please examine the following record next.
Entry under test: `C#Cc1cc(=O)n(C2CC2)c2c(C)c(N3CC[C@@H]([C@H](C)N)C3)c(F)cc12` . Its pIC50 was 5.99

----------
tested on: P. aeruginosa NB52023 (efflux deficient K1542, ΔmexX ΔmexB); assay: microbe, parasite or virus in culture; format: cell-based; details: Pseudomonas aeruginosa, 20 h, read-out: Antibacterial activity (MIC) NB52023
Counter-ions that a name gives are not always drawn.
measured.attribute: MIC

# example entries with known answers
compound: CC(=O)NCc1cc(=O)n(C2CC2)c2c(C)c(N3CC[C@@H]([C@H](C)N)C3)c(F)cc12
MIC: > 32 µg/mL
//
compound: CCc1cc(=O)n(C2CC2)c2c(C)c(N3CC[C@@H]([C@H](C)N)C3)c(F)cc12
MIC: > 32 µg/mL
//
compound: Cc1c(N2CC[C@@H]([C@H](C)N)C2)c(F)cc2c(C(=O)NO)cc(=O)n(C3CC3)c12
MIC: > 32 µg/mL

Memo: COc1cc2ccc(N3CC[C@@H]([C@H](C)N)C3)c(C)c2n(C2CC2)c1=O [Example 80, TFA salt] , reported MIC: > 32 µg/mL

`Cc1c(N2CC[C@@H]([C@H](C)N)C2)c(F)cc2c(NS(C)(=O)=O)cc(=O)n(C3CC3)c12` yielded MIC of > 32 µg/mL

The reported value for Cc1c(-c2ccc(N)nc2)ccc2cc(O)c(=O)n(C3CC3)c12 [Example 77, TFA salt] in terms of MIC is > 32 µg/mL
